target: Microtubule-associated protein 1 light chain 3 alpha (Homo sapiens, UniProt Q9H492); test: Binding affinity to recombinant LC3A (unknown origin) assessed as shift of melting temperature by differential scanning fluorimetry
# reported ΔTm; entries follow
Measure: ΔTm (°C)

- CO[C@@H]1[C@@H](OC(N)=O)[C@@H](O)[C@H](Oc2ccc3c(O)c(NC(=O)c4ccc(O)c(CCC(C)C)c4)c(=O)oc3c2C)OC1(C)C: 5.6
- CC(C)CCc1cccc(C(=O)Nc2c(O)c3ccc(O)cc3oc2=O)c1: 1.4
- Cc1c(O)ccc2c(O)c(NC(=O)c3cccc(CCC(C)C)c3)c(=O)oc12: 0
- Cc1c(O)ccc2c(O)c(NC(=O)c3ccc(O)c(CCC(C)C)c3)c(=O)oc12: 0.7
- CC(C)CCc1cc(C(=O)Nc2c(O)c3ccc(O)cc3oc2=O)ccc1O: 0.8
